Value source: the supplement of paper PMC6555819

Tested on: PPARg:RXRa IVT, anti-PPARg (NR concentration 270 nM, RXRa partner concentration 90 nM)
ASSAY COMMENT: PBM binding z-score (relative to random genomic background probes); higher = stronger binding; sequences stand for … in GC…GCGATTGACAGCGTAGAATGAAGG
Bucketed by reported PBM binding z-score, buckets being LOW: < 1; MID: ≥ 1 and < 3; HIGH: ≥ 3

Known results for sequences:
TCGAGTAGGTTAGTCGGGGCATTCGGCCAACATA | MID
TCATATAGGTAAATTCTAGGTGAAAGTCCGATCT | HIGH
GCATATAGGTAATACAAGGTGAAACTCCGATTGT | HIGH
CCTAGTTGGTCAGGAGGTCACACAGCGGATATGA | HIGH
TCTTGTAGCTCAACAGGAGGTTAAGAAAGATCGA | LOW

For the record GCTTGTAGACCAAGGTTAAGAAAGACTAAGCTAA , report the class its PBM binding z-score corresponds to.
LOW

For the record GTAGACAGGTGAAACGCAGGTAACTCAGGGTGGC , report the class its PBM binding z-score corresponds to.
LOW

For the record TCTATTAGTTGAAGGGCACCCGACGAGTCCGTTT , report the class its PBM binding z-score corresponds to.
LOW

For the record ATATGTAGCTTACATCCGGGTCATTCAGGCTATG , report the class its PBM binding z-score corresponds to.
MID

For the record TCTAGGTGGTCAAAGGTCACACACTCGAAATGCG , report the class its PBM binding z-score corresponds to.
HIGH

For the record CGTCCAAGGTCAAAGGTCAGTGCAGAGATGACGG , report the class its PBM binding z-score corresponds to.
HIGH

For the record ATCGAAAGGTCGACGTGGTGAGTATACACCGTTT , report the class its PBM binding z-score corresponds to.
MID

For the record TTACCAAGGTGGAAGGTCGTTGATGCACGCCTTG , report the class its PBM binding z-score corresponds to.
MID

For the record TCTATTAGTTGATTAGGGTAACCGAAACAGCGGA , report the class its PBM binding z-score corresponds to.
MID

For the record CTACCAAGGTGAGCAAGGTCGTTGATTACTATTC , report the class its PBM binding z-score corresponds to.
MID

For the record AGTCAAAGTTAATCTAGGTAACGTAAGATATGCT , report the class its PBM binding z-score corresponds to.
HIGH

For the record ACAGACAGGTGATGAATGTAACTCAGGCTATCAT , report the class its PBM binding z-score corresponds to.
LOW

For the record CATACAGGGTCAGCTAGGCCAGATTAGGGACGGC , report the class its PBM binding z-score corresponds to.
MID

For the record TGAATGAGGATAAAGATCAGGGAACGTGGCGTCG , report the class its PBM binding z-score corresponds to.
LOW

For the record GGAACGAGGGCATTCGAGTTGATACCATGGCGAT , report the class its PBM binding z-score corresponds to.
MID

For the record TCTTGTAGATCAAAGGTGAAGAAAGCCGAAGCCT , report the class its PBM binding z-score corresponds to.
HIGH
